# Test system: L1210 leukemia ip in BDF1 mice, survival T/C
# MEASUREMENT PROTOCOL: NCI In Vivo Anticancer Drug Screen. Data for tumor model L1210 Leukemia (intraperitoneal) in B6D2F1 (BDF1) mice
# STATED CONDITIONS: endpoint: mean survival time; dose: 100.0 mg/kg/injection; schedule: Q01DX009 (ip); vehicle: Klucel (hydroxypropylcellulose) (HPC); higher = longer survival
Toxic doses and inconclusive results are not listed.

{"columns": ["COMPOUND", "TARGET ENTITY", "T/C"],
 "data": [
  ["CCCCCCCCN(C)N=Nc1ccc(C(=O)O)cc1", "L1210 leukemia ip in BDF1 mice, survival T/C", "102 % of control"],
  ["CCCCOC(=O)c1ccc(NC(=O)Nc2cc(C(F)(F)F)ccc2Cl)cc1", "L1210 leukemia ip in BDF1 mice, survival T/C", "107 % of control"],
  ["Cc1cc(Cl)nc(Cl)c1C#N", "L1210 leukemia ip in BDF1 mice, survival T/C", "101 % of control"],
  ["O=C(NC(=S)Nc1cccc(Cl)c1)c1ccccc1", "L1210 leukemia ip in BDF1 mice, survival T/C", "106 % of control"],
  ["O=C(Nc1ccc(Cl)c(Cl)c1)N(CCO)Cc1ccccc1", "L1210 leukemia ip in BDF1 mice, survival T/C", "90 % of control"],
  ["CCCCOC(=O)c1ccc(NC(=O)Nc2cc(Cl)ccc2OC)cc1", "L1210 leukemia ip in BDF1 mice, survival T/C", "98 % of control"],
  ["O=C1C2C3CCC(O3)C2C(=O)N1Cc1ccccc1CN1C(=O)C2C3CCC(O3)C2C1=O (configuration not stated)", "L1210 leukemia ip in BDF1 mice, survival T/C", "91 % of control"],
  ["CCOc1cc(N)ccc1C", "L1210 leukemia ip in BDF1 mice, survival T/C", "97 % of control"],
  ["Cc1ccc([N+](=O)[O-])cc1NC(=O)NCc1ccccc1", "L1210 leukemia ip in BDF1 mice, survival T/C", "89 % of control"],
  ["O=C(/C=C/c1ccccc1)N(Cc1ccccc1)c1ccccc1", "L1210 leukemia ip in BDF1 mice, survival T/C", "97 % of control"],
  ["O=c1oc2c3ccccc3c3ccccc3c2o1", "L1210 leukemia ip in BDF1 mice, survival T/C", "94 % of control"],
  ["Cc1c(C)c([N+](=O)[O-])c(C)c(C)c1[N+](=O)[O-]", "L1210 leukemia ip in BDF1 mice, survival T/C", "91 % of control"],
  ["CCCCNC(=O)NC(C(=O)OCC)C(=O)OCC", "L1210 leukemia ip in BDF1 mice, survival T/C", "97 % of control"],
  ["CCN(CC)c1cc(Cl)c(C=O)cc1Br", "L1210 leukemia ip in BDF1 mice, survival T/C", "98 % of control"],
  ["CC(=O)c1cccc(NC(=O)Nc2cccc(F)c2)c1", "L1210 leukemia ip in BDF1 mice, survival T/C", "103 % of control"],
  ["Cc1cc(C)c(NC(=O)c2cccc(C(=O)Nc3c(C)cc(C)cc3C)c2)c(C)c1", "L1210 leukemia ip in BDF1 mice, survival T/C", "102 % of control"],
  ["O=C(O)c1ccc(-c2ccccc2)cc1", "L1210 leukemia ip in BDF1 mice, survival T/C", "95 % of control"]
]}

* * *

# Test system: L1210 leukemia ip in BDF1 mice, survival T/C
# MEASUREMENT PROTOCOL: NCI In Vivo Anticancer Drug Screen. Data for tumor model L1210 Leukemia (intraperitoneal) in B6D2F1 (BDF1) mice
# STATED CONDITIONS: endpoint: mean survival time; dose: 100.0 mg/kg/injection; schedule: Q04DX003 (ip); vehicle: saline with Tween-80; higher = longer survival
Toxic doses and inconclusive results are not listed.

{"columns": ["COMPOUND", "TARGET ENTITY", "T/C"],
 "data": [
  ["O=S1(=O)CCCC1C(O)(c1ccccc1)c1ccccc1 (configuration not stated)", "L1210 leukemia ip in BDF1 mice, survival T/C", "97 % of control"],
  ["CCOc1ccccc1CC(=O)O", "L1210 leukemia ip in BDF1 mice, survival T/C", "92 % of control"],
  ["Nc1nc(C=O)c(Cc2ccc(Br)cc2)c(=O)[nH]1", "L1210 leukemia ip in BDF1 mice, survival T/C", "100 % of control"],
  ["CCCCC#CC(=O)OCCC(C)C", "L1210 leukemia ip in BDF1 mice, survival T/C", "94 % of control"],
  ["CN(N)c1ncnc2c1ncn2C1OC(CO)C(O)C1O (configuration not stated)", "L1210 leukemia ip in BDF1 mice, survival T/C", "114 % of control"],
  ["OC1(CBr)CCCCC1", "L1210 leukemia ip in BDF1 mice, survival T/C", "102 % of control"],
  ["CCOC(OCC)c1cc[n+](CCc2ccc(OC)c(OC)c2)cc1", "L1210 leukemia ip in BDF1 mice, survival T/C", "95 % of control"],
  ["O=C(CNCc1ccccc1)NC(Cc1ccccc1)c1ccccc1 (configuration not stated)", "L1210 leukemia ip in BDF1 mice, survival T/C", "101 % of control"],
  ["CC(C)(C)NC1=NCCO1", "L1210 leukemia ip in BDF1 mice, survival T/C", "100 % of control"],
  ["Cc1cc(C)c(C(=O)Oc2ccc3ccccc3c2)c(C)c1", "L1210 leukemia ip in BDF1 mice, survival T/C", "92 % of control"],
  ["COC(OC)C1OC(C)(C)OC1C(OS(=O)(=O)c1ccc(C)cc1)C1COC(C)(C)O1 (configuration not stated)", "L1210 leukemia ip in BDF1 mice, survival T/C", "97 % of control"],
  ["c1ccc(-c2n[nH]c(-c3ccccc3)c2-c2ccccc2)cc1", "L1210 leukemia ip in BDF1 mice, survival T/C", "92 % of control"],
  ["OCCN1C(c2ccccc2)C1c1ccccc1 (configuration not stated)", "L1210 leukemia ip in BDF1 mice, survival T/C", "102 % of control"],
  ["O=C(O)c1cc(Cl)ccc1Br", "L1210 leukemia ip in BDF1 mice, survival T/C", "100 % of control"],
  ["CCCCCCCC(=O)Nc1cccc(OC(=O)NC)c1", "L1210 leukemia ip in BDF1 mice, survival T/C", "98 % of control"],
  ["CC(C)CCS(=O)CCC(C)C", "L1210 leukemia ip in BDF1 mice, survival T/C", "105 % of control"],
  ["O=C(O)CNCC(=O)O", "L1210 leukemia ip in BDF1 mice, survival T/C", "105 % of control"],
  ["Cc1ccc(Sc2cccc3c2C(=O)c2c(Sc4ccc(C)cc4)cccc2C3=O)cc1", "L1210 leukemia ip in BDF1 mice, survival T/C", "86 % of control"],
  ["CCOc1ccc(Nc2cc([N+](=O)[O-])ccc2C(=O)O)cc1", "L1210 leukemia ip in BDF1 mice, survival T/C", "107 % of control"],
  ["CCOC(=O)C1C(O)=C(c2ccccc2)P(=O)(Cc2ccccc2)C1(C)C (configuration not stated)", "L1210 leukemia ip in BDF1 mice, survival T/C", "94 % of control"],
  ["OCCN(Cc1ccccc1)Cc1ccccc1", "L1210 leukemia ip in BDF1 mice, survival T/C", "101 % of control"],
  ["NC(=O)N/N=C\\c1ccco1", "L1210 leukemia ip in BDF1 mice, survival T/C", "94 % of control"],
  ["O=C(CCc1ccc(O)cc1)N/N=C/c1cc(Br)ccc1O", "L1210 leukemia ip in BDF1 mice, survival T/C", "95 % of control"],
  ["CC(=O)OCCOc1ccc([N+](=O)[O-])cc1", "L1210 leukemia ip in BDF1 mice, survival T/C", "102 % of control"],
  ["O=C(CCCN1CC=C(N2CCc3ccccc32)CC1)c1ccc(F)cc1", "L1210 leukemia ip in BDF1 mice, survival T/C", "102 % of control"],
  ["O=C(NC(CBr)CCCBr)c1ccc([N+](=O)[O-])cc1 (configuration not stated)", "L1210 leukemia ip in BDF1 mice, survival T/C", "105 % of control"],
  ["CN(C)CC(OCCCc1ccccc1)C(Cl)(Cl)Cl (configuration not stated)", "L1210 leukemia ip in BDF1 mice, survival T/C", "109 % of control"],
  ["COc1cccc(C(=O)c2ccccc2NC(C)=O)c1", "L1210 leukemia ip in BDF1 mice, survival T/C", "93 % of control"],
  ["NC(=S)Nc1ccccn1", "L1210 leukemia ip in BDF1 mice, survival T/C", "98 % of control"],
  ["CC1CCC=C2C(=O)C3OC(C)(C)C(C3O)C21C (configuration not stated)", "L1210 leukemia ip in BDF1 mice, survival T/C", "97 % of control"],
  ["CC(=O)c1cccc(NC(=O)Oc2cc(C)c(Cl)c(C)c2)c1", "L1210 leukemia ip in BDF1 mice, survival T/C", "93 % of control"],
  ["COC(=O)C1=C(C)NC(=S)NC1c1ccco1 (configuration not stated)", "L1210 leukemia ip in BDF1 mice, survival T/C", "95 % of control"]
]}
